Test system: HCT-116 colon
assay_notes: NCI tumour cell line growth inhibition, 48 h
metric_name: TGI

Consider the worked cases shown below.
CC(=O)N(O)c1ccc(/C=C/c2ccccc2)cc1 :: 13.4 µM
COc1ccc(-n2c(C)nc3ccc(NC4OC(CO)C(O)C(O)C4O)cc3c2=O)cc1 (centres undefined) :: > 100 µM
COc1ccc(/C=N\Nc2nc(SCC(C)C)nc(-c3ccc(OC)cc3)c2C#N)cc1 :: 15.3 µM
CCN(Cc1ccc(F)cc1)c1ccc(CO)c(C(F)(F)F)c1 :: 12.8 µM
C[C@H]1CN(C2COC2)CCN1c1ccc(Nc2cc(-c3ccnc(N4CCn5c(cc6c5CC(C)(C)C6)C4=O)c3CO)cn(C)c2=O)nc1 :: > 100 µM
O=[N+]([O-])/C=C/c1cn(CCCCCCCCCCCCn2cc(/C=C/[N+](=O)[O-])c3ccccc32)c2ccccc12 :: > 100 µM
O=C(Nc1ccc2[nH]c(C(=O)N3CC(CCl)c4ccc([N+](=O)[O-])cc43)cc2c1)c1cc2ccccc2o1 (centres undefined) :: > 1100 µM
C/C(=N\NC(=S)Nc1ccc([N+](=O)[O-])cc1)c1nc2ncccc2[nH]1 :: 6.12 µM

Please give the measured TGI for this compound: Nc1nc(-c2ccc(Cl)cc2)nc2c1sc(=S)n2-c1ccccc1
10.9 µM

# credit: PubChem BioAssay (NCI)
